target: T1, soluble human insulin receptor-immunoglobulin heavy chain chimera (sIR-Fc) (human, UniProt P06213 28-956, limits assumed, Eu3+ label (LANCE) in the TR-FRET assays); experiment: TR-FRET competition vs b-S175, sIR-Fc (column as given)
T1 construct: extracellular domain; construct of Bass et al., 1996; also called HIR-immunoglobulin heavy chain chimera; not shown: immunoglobulin heavy chain constant domains
value_kind: pIC50
Quick note: pIC50 values are minus log10 of concentrations in mol/L.

Exercise: Can you look up the measured pIC50 of GGTVWPGYEWLRNA [E8 (D120)] for me?
Solution: 6.12
